Entry source: ChEMBL document CHEMBL1126046

- System: Raji
- assay.method.text: Inhibitory effect on the proliferation of human B-lymphoblast Raji cells.
- Format: functional, cell-based
measurement.kind: log10 of IC50 (log10 of the value in µg/mL)
Kindly note that the scale is log10 and the underlying IC50 is in µg/mL.

# annotated cases, reported log10 of IC50 shown
What measured log10 of IC50 goes with C/C(=C\COc1ccc2ccc(=O)oc2c1)CC/C=C(\C)C1CC(=O)C(C)(C)O1 (stereo not drawn) ?
1.71

Next compound: C/C(=C\COc1ccc2ccc(=O)oc2c1)C1CC(=O)C(C)(C)O1 (stereo not drawn)
2.35

Can you handle C/C(=C\COc1ccccc1)CC/C=C(\C)C1=CC(=O)C(C)(C)O1 next?
1.61

Same question for C/C(=C\COc1ccc2ccc(=O)oc2c1)C1=CC(=O)C(C)(C)O1 please.
0.92

***
Would you kindly share the measured log10 of IC50 for C/C(=C\COc1c(Cl)cccc1Cl)CC/C=C(\C)C1CC(=O)C(C)(C)O1 (stereo not drawn) ?
1.78

Then C/C(=C\COc1ccc2ccccc2c1)CC/C=C(\C)C1CC(=O)C(C)(C)O1 (stereo not drawn) ?
1.68

Cool, now C/C(=C\COc1ccc2ccc(=O)oc2c1)CC/C=C(\C)C1=CC(=O)C(C)(C)O1
1.40

Follow-up item: C/C(=C\COc1ccc2ccccc2c1)CC/C=C(\C)C1=CC(=O)C(C)(C)O1
1.80

---

Measured IC50 accompanies every entry in the list below.
- System: MT4
- assay.method.text: Inhibitory effect on the proliferation of human T-lymphocyte MT-4 cells.
- Format: functional, cell-based
Give your result as the value with the unit written after it.

Query (molecule): C/C(=C\COc1ccc2ccccc2c1)CC/C=C(\C)C1=CC(=O)C(C)(C)O1 ; field requested: IC50
38.6 µg/mL

Also C/C(=C\COc1ccc2ccc(=O)oc2c1)C1CC(=O)C(C)(C)O1 (stereo unspecified) , if possible.
107 µg/mL

# repeat for C/C(=C\COc1ccc2ccccc2c1)CC/C=C(\C)C1CC(=O)C(C)(C)O1 (stereo unspecified)
48.8 µg/mL

Others:
Sample C/C(=C\COc1ccc2ccc(=O)oc2c1)CC/C=C(\C)C1=CC(=O)C(C)(C)O1 — what was its IC50?
15.6 µg/mL

Can you handle C/C(=C\COc1ccc2ccc(=O)oc2c1)CC/C=C(\C)C1CC(=O)C(C)(C)O1 (stereo unspecified) next?
42.9 µg/mL

Request: C/C(=C\COc1ccc2ccc(=O)oc2c1)C1=CC(=O)C(C)(C)O1
1.64 µg/mL

---

Entries and their measured IC50 follow.
- System: L1210
- assay.method.text: Inhibitory effect on the proliferation of murine leukemia L1210 cells.
- Type: functional, cell-based
- measurement.setup: Mus musculus
A number alone suffices; assume µg/mL.

Below: 4 molecules and their reported IC50.
Which value of IC50 has been reported for C/C(=C\COc1ccc2ccc(=O)oc2c1)C1CC(=O)C(C)(C)O1 (configuration not stated) in the records?
211

Then this molecule: C/C(=C\COc1ccc2ccc(=O)oc2c1)CC/C=C(\C)C1CC(=O)C(C)(C)O1 (configuration not stated)
64.5

Moving on to C/C(=C\COc1ccc2ccc(=O)oc2c1)C1=CC(=O)C(C)(C)O1 [GEIPARVARIN]
5.31

Moving on to C/C(=C\COc1ccc2ccc(=O)oc2c1)CC/C=C(\C)C1=CC(=O)C(C)(C)O1
39.7

Further cases:
Which IC50 is listed for C/C(=C\COc1ccccc1)CC/C=C(\C)C1=CC(=O)C(C)(C)O1 ?
38.7

Let us now turn to C/C(=C\COc1ccc2ccccc2c1)CC/C=C(\C)C1CC(=O)C(C)(C)O1 (configuration not stated)
24.9

Item: C/C(=C\COc1ccc2ccccc2c1)CC/C=C(\C)C1=CC(=O)C(C)(C)O1
47.4

---

- Test system: L1210
- assay.method.text: Inhibitory effect on the proliferation of murine leukemia L1210 cells
- Format: functional, cell-based
- measurement.setup: Mus musculus
measurement.kind: IC50
Value and unit, in that order.

Worked examples follow.
Request the reported IC50 associated with C/C(=C\COc1c(Cl)cccc1Cl)CC/C=C(\C)C1CC(=O)C(C)(C)O1 (stereo unspecified)
58 µg/mL

Proceed to COc1cccc(OC/C=C(\C)CC/C=C(\C)C2CC(=O)C(C)(C)O2)c1 (stereo unspecified)
66.5 µg/mL

Moving on to C/C(=C\COc1c(Cl)cccc1Cl)CC/C=C(\C)C1=CC(=O)C(C)(C)O1
30.7 µg/mL

Now the same for C/C(=C\COc1ccccc1)CC/C=C(\C)C1CC(=O)C(C)(C)O1 (stereo unspecified)
64 µg/mL

Please give the result for COc1ccc(OC/C=C(\C)CC/C=C(\C)C2=CC(=O)C(C)(C)O2)cc1 too.
40.2 µg/mL

Consider the additional compound presented here.
For the compound shown here, COc1cccc(OC/C=C(\C)CC/C=C(\C)C2=CC(=O)C(C)(C)O2)c1 , give the reported IC50.
36.3 µg/mL
